# System name: hTRPA1 (Homo sapiens, UniProt O75762)
# Sequence (O75762 whole entry): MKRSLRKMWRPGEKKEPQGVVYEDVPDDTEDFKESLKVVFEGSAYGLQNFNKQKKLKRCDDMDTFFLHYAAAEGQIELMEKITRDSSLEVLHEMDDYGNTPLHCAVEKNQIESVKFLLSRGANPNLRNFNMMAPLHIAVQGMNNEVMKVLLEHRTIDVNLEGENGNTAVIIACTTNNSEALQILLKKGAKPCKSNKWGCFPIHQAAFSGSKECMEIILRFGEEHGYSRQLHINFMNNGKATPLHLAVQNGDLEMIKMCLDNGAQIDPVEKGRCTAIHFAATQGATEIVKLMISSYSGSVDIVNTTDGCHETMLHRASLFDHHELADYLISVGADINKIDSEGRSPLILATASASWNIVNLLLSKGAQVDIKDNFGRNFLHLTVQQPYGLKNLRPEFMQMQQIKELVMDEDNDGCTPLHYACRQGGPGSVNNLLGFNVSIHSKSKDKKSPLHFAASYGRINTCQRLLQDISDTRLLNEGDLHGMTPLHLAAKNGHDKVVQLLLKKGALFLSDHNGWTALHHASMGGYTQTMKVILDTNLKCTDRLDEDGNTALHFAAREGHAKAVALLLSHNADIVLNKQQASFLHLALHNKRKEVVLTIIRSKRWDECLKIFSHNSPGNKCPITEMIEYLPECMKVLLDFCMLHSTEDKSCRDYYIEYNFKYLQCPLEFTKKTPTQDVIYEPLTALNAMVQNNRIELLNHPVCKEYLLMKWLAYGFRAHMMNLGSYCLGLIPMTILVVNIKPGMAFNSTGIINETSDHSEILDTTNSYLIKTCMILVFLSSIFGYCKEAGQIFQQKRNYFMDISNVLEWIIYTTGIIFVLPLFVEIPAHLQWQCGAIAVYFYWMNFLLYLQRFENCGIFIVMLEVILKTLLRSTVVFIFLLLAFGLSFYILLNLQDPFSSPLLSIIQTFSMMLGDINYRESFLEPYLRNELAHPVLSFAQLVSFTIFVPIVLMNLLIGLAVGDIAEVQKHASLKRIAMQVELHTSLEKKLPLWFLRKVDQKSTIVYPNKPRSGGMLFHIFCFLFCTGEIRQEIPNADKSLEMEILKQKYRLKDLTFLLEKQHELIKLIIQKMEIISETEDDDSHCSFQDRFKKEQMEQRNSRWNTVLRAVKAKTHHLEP
# Measurement description: IC50 determination, dose response calcium flux (FLIPR) assay, ChanTest hTRPA1-CHO stably transfected cell line
# Setup conditions: CHO-K1 Tet-On hTRPA1 cells, 30' preincubation, agonist cinnamaldehyde final 100 uM
pIC50: −log10 of the molar value. Structures can show the parent of a compound that is named as a salt.
Endpoint name: pIC50

molecule="COc1ccc(CC2CCCN(C[C@H](OC(=O)Nc3ccc(Cl)cc3)C(F)(F)F)C2)cc1 (stereo partly shown)" system_name="hTRPA1 (Homo sapiens, UniProt O75762)" endpoint_name=pIC50 test_result=6.78

A. O=C(Nc1ccc(Cl)cc1)O[C@@H](CN1CCCC(Sc2ccccc2)C1)C(F)(F)F (stereo partly shown) [Example 44, hydrochloride]
B. COc1cccc(C2CCCN(C[C@H](OC(=O)Nc3ccc(Br)cc3)C(F)(F)F)C2)c1 (stereo partly shown) [Example 60, hydrochloride]
C. O=C(Nc1ccc(Cl)cc1)O[C@@H](CN1CCCC(C(=O)c2ccccc2)C1)C(F)(F)F (stereo partly shown) [Example 39, hydrochloride]
Output the entries ranked by pIC50 from maximum down to minimum. Write the labels in rank order as requested.
A, B, C
